target: TRPC4 (Homo sapiens); construct: expressed in transfected cells; host or cells: HEK-TREx (HekTrex-293), cell line ICLN-1694, tetracycline-induced; assay: TRPC4 FLIPR Assay (HEK-TREx hTRPC4, Englerin A stimulation); assay type: cell-based; details: Table 8; HEK-TREx hTRPC4; read-out: TRPC4 FLIPR IC50
Sequence (Q9UBN4 1-982 isoform Q9UBN4-5): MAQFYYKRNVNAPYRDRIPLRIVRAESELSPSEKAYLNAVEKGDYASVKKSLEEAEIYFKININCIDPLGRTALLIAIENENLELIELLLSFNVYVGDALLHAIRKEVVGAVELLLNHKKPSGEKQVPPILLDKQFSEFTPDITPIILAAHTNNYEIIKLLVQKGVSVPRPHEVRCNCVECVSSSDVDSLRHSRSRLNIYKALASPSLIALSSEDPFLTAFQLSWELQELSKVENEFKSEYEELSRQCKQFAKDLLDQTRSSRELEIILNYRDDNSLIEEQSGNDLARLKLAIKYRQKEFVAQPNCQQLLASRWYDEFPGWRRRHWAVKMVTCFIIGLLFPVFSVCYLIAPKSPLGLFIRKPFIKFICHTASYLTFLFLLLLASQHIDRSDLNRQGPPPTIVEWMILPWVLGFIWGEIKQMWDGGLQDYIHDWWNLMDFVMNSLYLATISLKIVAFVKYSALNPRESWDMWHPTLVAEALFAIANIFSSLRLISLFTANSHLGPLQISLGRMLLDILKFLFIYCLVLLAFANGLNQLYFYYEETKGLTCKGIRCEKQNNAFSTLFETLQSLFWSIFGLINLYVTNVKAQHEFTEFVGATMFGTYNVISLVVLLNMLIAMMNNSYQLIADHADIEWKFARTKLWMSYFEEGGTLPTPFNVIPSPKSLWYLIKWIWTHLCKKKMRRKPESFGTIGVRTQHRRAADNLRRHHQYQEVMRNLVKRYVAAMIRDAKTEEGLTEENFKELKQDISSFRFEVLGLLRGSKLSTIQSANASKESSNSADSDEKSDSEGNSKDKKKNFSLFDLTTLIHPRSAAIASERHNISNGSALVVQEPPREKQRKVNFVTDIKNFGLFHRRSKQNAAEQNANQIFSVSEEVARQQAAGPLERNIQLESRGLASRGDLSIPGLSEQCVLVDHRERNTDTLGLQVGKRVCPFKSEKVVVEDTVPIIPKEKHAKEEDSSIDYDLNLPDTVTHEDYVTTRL
pIC50: −log10 of the molar value.
The entries below come with measured pIC50 values attached.

COMPOUND: Cc1cc(Cl)ccc1CN1CCN(c2cn[nH]c(=O)c2Cl)CC1=O [drawing 1018]
SYSTEM UNDER TEST: TRPC4 (Homo sapiens)
pIC50: 5.30 to 6.00

COMPOUND: Cc1ccccc1Cn1cnc2c1CCN(c1cn[nH]c(=O)c1Cl)C2 [drawing 938]
SYSTEM UNDER TEST: TRPC4 (Homo sapiens)
pIC50: 6.00 to 11.00

COMPOUND: O=C1CN(c2cn[nH]c(=O)c2Cl)CCN1Cc1ccccc1OC(F)(F)F [drawing 1015]
SYSTEM UNDER TEST: TRPC4 (Homo sapiens)
pIC50: 6.00 to 11.00

COMPOUND: C[C@H](c1ccccc1Cl)n1nnc2c1CCN(c1cn[nH]c(=O)c1Cl)C2 [drawing 995]
SYSTEM UNDER TEST: TRPC4 (Homo sapiens)
pIC50: 6.00 to 11.00

COMPOUND: CCc1ncccc1N(C)c1ncc2c(n1)CN(c1cn[nH]c(=O)c1Cl)C2 [drawing 1006]
SYSTEM UNDER TEST: TRPC4 (Homo sapiens)
pIC50: 6.00 to 11.00

COMPOUND: Cc1ccccc1CN1CCN(c2cn[nH]c(=O)c2Br)CC1=O
SYSTEM UNDER TEST: TRPC4 (Homo sapiens)
pIC50: 6.00 to 11.00

COMPOUND: C[C@H](c1ccc(F)cc1C(F)(F)F)N1C[C@@H](C)N(c2cn[nH]c(=O)c2Cl)CC1=O [drawing 992]
SYSTEM UNDER TEST: TRPC4 (Homo sapiens)
pIC50: 6.00 to 11.00

====

target: TRPC5 (Homo sapiens, UniProt Q9UL62); construct: expressed in transfected cells; host or cells: HEK 293; experiment: TRPC5 automated patch clamp assay (Qpatch), current block after rosiglitazone stimulation; format: cell-based; conditions: Table 5; HEK293 cells overexpressing TRPC5; rosiglitazone stimulation; 100 mV; read-out: TRPC5_QP_ XC50_100

MOLECULE: Cc1cc(F)ccc1CN1CCN(c2c(C)cn[nH]c2=O)CC1
IC50: 1 to 5 µM

MOLECULE: O=C1CN(c2cn[nH]c(=O)c2Cl)CCN1Cc1ccc(C2CC2)cc1
IC50: 10 to 500 µM

MOLECULE: Cc1cc(F)ccc1CN1CCN(c2c(Br)n[nH]c(=O)c2Cl)CC1
IC50: 10 to 500 µM

MOLECULE: Cc1ccccc1N1CCN(c2cn[nH]c(=O)c2Cl)CC1
IC50: 1 to 5 µM

MOLECULE: O=C1N(Cc2ccccc2C(F)(F)F)CCC12CCN(c1cn[nH]c(=O)c1Cl)CC2
IC50: 10 to 500 µM

MOLECULE: Cc1n[nH]c(=O)c(N2CCN(Cc3ccccc3OC(F)(F)F)C(=O)C2)c1Cl
IC50: 5 to 10 µM

MOLECULE: O=C1CN(c2cn[nH]c(=O)c2Cl)CCN1Cc1ccc(Cl)cc1
IC50: 5 to 10 µM

MOLECULE: Cc1cc(F)ccc1CN1CCN(c2ccn[nH]c2=O)CC1
IC50: 10 to 500 µM

MOLECULE: O=C1N(Cc2ccccc2C(F)(F)F)CCC12CCN(c1cn[nH]c(=O)c1Br)CC2
IC50: 10 to 500 µM

MOLECULE: O=C1CN(c2cn[nH]c(=O)c2Cl)CCN1Cc1ccc(OC(F)(F)F)cc1
IC50: 1 to 5 µM

MOLECULE: O=c1[nH]ncc(N2CCc3ncn(Cc4ccccc4)c3C2)c1Cl
IC50: 10 to 500 µM

MOLECULE: Cc1n[nH]c(=O)c(Cl)c1N1CCN(Cc2ccc(F)cc2C(F)(F)F)C(=O)C1
IC50: 5 to 10 µM

MOLECULE: CCc1cn[nH]c(=O)c1N1CCN(Cc2ccc(F)cc2C)CC1
IC50: 1 to 5 µM

MOLECULE: CS(=O)(=O)c1ccc(CN2CCN(c3cn[nH]c(=O)c3Cl)CC2=O)cc1
IC50: 10 to 500 µM

MOLECULE: O=C1CN(c2c(Cl)cn[nH]c2=O)CCN1Cc1cccc(C(F)(F)F)c1
IC50: 10 to 500 µM

MOLECULE: O=C1CN(c2cn[nH]c(=O)c2Cl)CCN1Cc1cccc2cn[nH]c12
IC50: 10 to 500 µM

MOLECULE: O=c1[nH]ncc(N2CCc3c(ncn3Cc3ccccc3)C2)c1Cl [drawing 831]
IC50: 1 to 5 µM

MOLECULE: O=C1CN(c2c(Cl)cn[nH]c2=O)CCN1Cc1ccc(F)cc1F
IC50: 10 to 500 µM

MOLECULE: CCn1nc(CN2CCN(c3cn[nH]c(=O)c3Cl)CC2)c2ccccc21
IC50: 10 to 500 µM

MOLECULE: COc1ncccc1CN1CCN(c2cn[nH]c(=O)c2Cl)CC1=O
IC50: 5 to 10 µM

MOLECULE: Cc1n[nH]c(=O)c(Cl)c1N1CCN(Cc2ccccc2C(F)(F)F)C(=O)C1
IC50: 5 to 10 µM

MOLECULE: C=Cc1n[nH]c(=O)c(N2CCN(Cc3ccc(F)cc3C)CC2)c1Cl
IC50: 10 to 500 µM

MOLECULE: O=C1CN(c2c(Cl)cn[nH]c2=O)CCN1Cc1ccc(OC(F)(F)F)cc1
IC50: 10 to 500 µM

MOLECULE: CC[C@H](c1ccccc1)N1CCN(c2cn[nH]c(=O)c2Cl)CC1
IC50: 1 to 5 µM

MOLECULE: CC[C@@H]1CN(Cc2ccc(F)cc2C)CCN1c1cn[nH]c(=O)c1Cl
IC50: 10 to 500 µM

MOLECULE: COc1ccc(CN2CCN(c3cn[nH]c(=O)c3Cl)CC2=O)cc1
IC50: 5 to 10 µM

MOLECULE: Cc1n[nH]c(=O)c(Cl)c1N1CCN(Cc2ccccc2OC(F)(F)F)C(=O)C1
IC50: 5 to 10 µM

MOLECULE: O=c1[nH]ncc(N2CCN(Cc3cccnc3Oc3ccccc3)CC2)c1Cl
IC50: 5 to 10 µM

MOLECULE: Cc1ccccc1CN1CC2(CCN(c3cn[nH]c(=O)c3Cl)CC2)C1
IC50: 1 to 5 µM

MOLECULE: Cc1cc(F)ccc1CN1CCN(c2c(Cl)c(-c3ccccc3)n[nH]c2=O)CC1
IC50: 10 to 500 µM

MOLECULE: Cc1n[nH]c(=O)c(N2CCN(Cc3ccc(F)cc3C(F)(F)F)C(=O)C2)c1Cl
IC50: 10 to 500 µM

====

Target: TRPC5 (Homo sapiens)
Construct: expressed in transfected cells; host or cells: HEK 293
Sequence (Q9UL62 1-973): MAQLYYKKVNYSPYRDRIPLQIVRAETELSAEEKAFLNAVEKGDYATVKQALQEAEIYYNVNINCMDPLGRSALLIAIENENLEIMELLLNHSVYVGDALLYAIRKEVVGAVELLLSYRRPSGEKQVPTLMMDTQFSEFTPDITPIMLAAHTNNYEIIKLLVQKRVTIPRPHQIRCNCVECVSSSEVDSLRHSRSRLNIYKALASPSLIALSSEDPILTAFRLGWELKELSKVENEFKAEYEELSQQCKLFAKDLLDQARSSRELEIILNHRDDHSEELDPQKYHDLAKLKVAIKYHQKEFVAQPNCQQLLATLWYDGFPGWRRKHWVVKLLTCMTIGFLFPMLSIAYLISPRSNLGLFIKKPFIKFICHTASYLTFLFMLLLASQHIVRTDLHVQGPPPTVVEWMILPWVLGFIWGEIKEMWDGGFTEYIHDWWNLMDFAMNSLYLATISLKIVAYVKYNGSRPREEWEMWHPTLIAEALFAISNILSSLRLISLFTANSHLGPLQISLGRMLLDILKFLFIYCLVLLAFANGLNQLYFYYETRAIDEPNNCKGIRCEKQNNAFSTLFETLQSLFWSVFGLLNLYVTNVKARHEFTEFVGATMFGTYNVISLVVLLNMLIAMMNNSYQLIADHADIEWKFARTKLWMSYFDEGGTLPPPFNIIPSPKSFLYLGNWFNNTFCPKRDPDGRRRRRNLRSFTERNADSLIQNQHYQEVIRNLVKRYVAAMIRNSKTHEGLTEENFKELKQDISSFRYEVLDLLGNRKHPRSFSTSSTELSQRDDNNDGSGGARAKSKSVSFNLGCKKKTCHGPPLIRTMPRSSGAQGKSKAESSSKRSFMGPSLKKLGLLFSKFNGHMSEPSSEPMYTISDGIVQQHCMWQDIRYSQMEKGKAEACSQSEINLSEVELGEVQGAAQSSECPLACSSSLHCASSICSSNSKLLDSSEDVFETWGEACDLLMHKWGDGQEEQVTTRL
Test: TRPC5 automated patch clamp assay (Qpatch), current block after rosiglitazone stimulation
Format: cell-based
Conditions: Table 5; HEK293 cells overexpressing TRPC5; rosiglitazone stimulation; 80 mV; read-out: TRPC5_QP_ XC50_80
QUANTITY KIND: IC50

MOLECULE: O=C1CN(c2c(Cl)cn[nH]c2=O)CCN1Cc1ccccc1OC(F)(F)F
MEASUREMENT: 10 to 500 µM
--
MOLECULE: CC(c1ccccc1)n1cnc2c1CCN(c1cn[nH]c(=O)c1Cl)C2 (stereo not shown)
MEASUREMENT: 1 to 5 µM
--
MOLECULE: O=C1CN(c2c(Cl)cn[nH]c2=O)CCN1Cc1cccc(OC(F)(F)F)c1
MEASUREMENT: 10 to 500 µM
--
MOLECULE: Cc1cc(F)ccc1CN1CCN(c2ccn[nH]c2=O)CC1
MEASUREMENT: 10 to 500 µM
--
MOLECULE: O=c1[nH]ncc(N2CCc3ncn(Cc4ccccc4)c3C2)c1Cl
MEASUREMENT: 10 to 500 µM
--
MOLECULE: Cc1n[nH]c(=O)c(Cl)c1N1CCN(Cc2ccc(F)cc2C(F)(F)F)C(=O)C1
MEASUREMENT: 5 to 10 µM
--
MOLECULE: O=c1[nH]ncc(N2CCN(Cc3ccc(F)cc3C(F)(F)F)CC2)c1Cl
MEASUREMENT: 1 to 5 µM
--
MOLECULE: Cc1cc(C(F)(F)F)ccc1CN1CCN(c2cn[nH]c(=O)c2Cl)CC1=O
MEASUREMENT: 1 to 5 µM
--
MOLECULE: CC(C)(C)c1ccc(CN2CCN(c3cn[nH]c(=O)c3Cl)CC2=O)cc1
MEASUREMENT: 10 to 500 µM
--
MOLECULE: O=C1CN(c2cn[nH]c(=O)c2C(F)(F)F)CCN1Cc1ccccc1C(F)(F)F
MEASUREMENT: 1 to 5 µM
--
MOLECULE: Cc1n[nH]c(=O)c(N2CCN(Cc3ccccc3OC(F)(F)F)C(=O)C2)c1Cl
MEASUREMENT: 5 to 10 µM
--
MOLECULE: Cc1ccc(CN2CCN(c3cn[nH]c(=O)c3Cl)CC2=O)cc1
MEASUREMENT: 5 to 10 µM
--
MOLECULE: C=Cc1n[nH]c(=O)c(N2CCN(Cc3ccc(F)cc3C)CC2)c1Cl
MEASUREMENT: 10 to 500 µM
--
MOLECULE: Cc1ncccc1CN1CCN(c2cn[nH]c(=O)c2Cl)CC1=O
MEASUREMENT: 10 to 500 µM
--
MOLECULE: Cc1cc(N2CCN(Cc3ccc(F)cc3C)C(=O)C2)c(=O)[nH]n1
MEASUREMENT: 10 to 500 µM
--
MOLECULE: O=C1CN(c2c(Br)n[nH]c(=O)c2Cl)CCN1Cc1ccccc1C(F)(F)F
MEASUREMENT: 1 to 5 µM
